Species on record: Rattus norvegicus
Assay: Open TG-GATES - Regimen: Daily Repeat
Assay type: toxicity, organism-based, Sprague-Dawley
Parameters: regimen Daily Repeat, gender Male, age 6 weeks
Settings: in vivo, po, 0 mg/kg, […], tissue Plasma, route gavage, dose level Control, time 28 day
Decide using GLC: a value greater than or equal to 200 mg/dL is true, a smaller one is false.

## Task Decide: is the reported value of GLC for CN(CCOc1ccc(CC2SC(=O)NC2=O)cc1)c1ccccn1.O=C(O)/C=C\C(=O)O (stereo not given) [ROSIGLITAZONE MALEATE] equal to or greater than 200 mg/dL?
## Result false

## Task Decide: is the reported value of GLC for Nc1ccc(Cc2ccc(N)cc2)cc1 equal to or greater than 200 mg/dL?
## Result false

## Task Decide: is the reported value of GLC for CN(C/C=C/C#CC(C)(C)C)Cc1cccc2ccccc12 equal to or greater than 200 mg/dL?
## Result true

## Task Decide: is the reported value of GLC for O=c1ccc2ccccc2o1 equal to or greater than 200 mg/dL?
## Result true

----------
Please respond with reported MCHC for every item in the list.
Species on record: Rattus norvegicus
Assay: Open TG-GATES - Regimen: Daily Repeat
Type: toxicity, organism-based, Sprague-Dawley
Set-up: regimen Daily Repeat, gender Male, age 6 weeks
Details: in vivo, po, 100 mg/kg, […], tissue Blood, route gavage, dose level Low, time 7 day
State just the number; it will be interpreted in %.

compound CC(S)C(=O)NCC(=O)O (centres undefined) , MCHC observed: 34.1

compound CC(=O)[C@@]1(O)CC[C@H]2[C@@H]3C=C(Cl)C4=CC(=O)CC[C@]4(C)[C@H]3CC[C@@]21C , MCHC observed: 33.6

compound CCCCNC(=O)NS(=O)(=O)c1ccc(C)cc1 [TOLBUTAMIDE] , MCHC observed: 33.2

compound O=C(O)c1ccccc1Nc1ccccc1 , MCHC observed: 33.9

----------
Species on record: Rattus norvegicus
Assay: Open TG-GATES - Regimen: Daily Repeat
Type: toxicity, organism-based, Sprague-Dawley
Set-up: regimen Daily Repeat, gender Male, age 6 weeks
Settings: in vivo, po, 0 mg/kg, […], tissue Plasma, route gavage, dose level Control, time 28 day
Please respond with reported ALT for every item in the list.
State just the number; it will be interpreted in IU/L.

molecule O=c1ccc2ccccc2o1 [COUMARIN] , ALT observed: 31.2

molecule Nc1ccc(Cc2ccc(N)cc2)cc1 , ALT observed: 34.4

molecule NS(=O)(=O)c1cc(C(=O)O)c(NCc2ccco2)cc1Cl [FUROSEMIDE] , ALT observed: 36.4

molecule CN(C/C=C/C#CC(C)(C)C)Cc1cccc2ccccc12 [TERBINAFINE] , ALT observed: 33.8

molecule CC(=O)[C@@]1(O)CC[C@H]2[C@@H]3C=C(Cl)C4=CC(=O)CC[C@]4(C)[C@H]3CC[C@@]21C [CHLORMADINONE] , ALT observed: 44.4

molecule O=C(O)c1ccccc1Nc1ccccc1 [FENAMIC ACID] , ALT observed: 32.4

molecule COc1ccc([C@@H]2Sc3ccccc3N(CCN(C)C)C(=O)[C@@H]2OC(C)=O)cc1 [DILTIAZEM] , ALT observed: 37.2

molecule CCCCC1C(=O)N(c2ccccc2)N(c2ccccc2)C1=O [PHENYLBUTAZONE] , ALT observed: 33

molecule CCN(CC)C(=S)SSC(=S)N(CC)CC , ALT observed: 35

molecule CN(CCOc1ccc(CC2SC(=O)NC2=O)cc1)c1ccccn1.O=C(O)/C=C\C(=O)O (stereo not drawn) [ROSIGLITAZONE MALEATE] , ALT observed: 29.2

molecule CCCCNC(=O)NS(=O)(=O)c1ccc(C)cc1 [TOLBUTAMIDE] , ALT observed: 40.6

molecule CC(S)C(=O)NCC(=O)O (stereo not drawn) [TIOPRONIN] , ALT observed: 35

molecule CCO [ALCOHOL] , ALT observed: 32

----------
Please respond with reported TG for every item in the list.
Species: Rattus norvegicus
Experiment: Open TG-GATES - Regimen: Daily Repeat
Assay type: toxicity, organism-based, Sprague-Dawley
Parameters: regimen Daily Repeat, gender Male, age 6 weeks
Conditions: in vivo, po, 1000 mg/kg, […], tissue Plasma, route gavage, dose level High, time 28 day
State just the number; it will be interpreted in mg/dL.

compound O=C(O)c1ccccc1Nc1ccccc1 , TG observed: 92

compound CC(S)C(=O)NCC(=O)O (centres undefined) , TG observed: 106.2

compound CC(=O)[C@@]1(O)CC[C@H]2[C@@H]3C=C(Cl)C4=CC(=O)CC[C@]4(C)[C@H]3CC[C@@]21C , TG observed: 161.6

compound CCCCNC(=O)NS(=O)(=O)c1ccc(C)cc1 [TOLBUTAMIDE] , TG observed: 111.5

----------
Organism: Rattus norvegicus
Assay: Open TG-GATES - Regimen: Daily Repeat
Assay type: toxicity, organism-based, Sprague-Dawley
Design: regimen Daily Repeat, gender Male, age 6 weeks
Conditions: in vivo, po, 0 mg/kg, […], tissue Liver, route gavage, dose level Control, time 7 day
MEASUREMENT TYPE: LIVER (g)
State just the number; it will be interpreted in g.

compound O=C(O)c1ccccc1Nc1ccccc1 , LIVER observed: 12.7

compound CC(=O)[C@@]1(O)CC[C@H]2[C@@H]3C=C(Cl)C4=CC(=O)CC[C@]4(C)[C@H]3CC[C@@]21C , LIVER observed: 12.3

compound CN(CCOc1ccc(CC2SC(=O)NC2=O)cc1)c1ccccn1.O=C(O)/C=C\C(=O)O (centres undefined) [ROSIGLITAZONE MALEATE] , LIVER observed: 12.9

compound CCCCNC(=O)NS(=O)(=O)c1ccc(C)cc1 [TOLBUTAMIDE] , LIVER observed: 12.8

compound CN(C/C=C/C#CC(C)(C)C)Cc1cccc2ccccc12 , LIVER observed: 13.3

compound Nc1ccc(Cc2ccc(N)cc2)cc1 , LIVER observed: 12.4

compound CC(S)C(=O)NCC(=O)O (centres undefined) , LIVER observed: 11.5

compound CCO , LIVER observed: 11.9

compound O=c1ccc2ccccc2o1 , LIVER observed: 11.4

----------
Organism: Rattus norvegicus
Test: Open TG-GATES - Regimen: Daily Repeat
Assay type: toxicity, organism-based, Sprague-Dawley
Design: regimen Daily Repeat, gender Male, age 6 weeks
Conditions: in vivo, po, 300 mg/kg, […], tissue Plasma, route gavage, dose level Middle, time 14 day
MEASUREMENT TYPE: TC (mg/dL)
State just the number; it will be interpreted in mg/dL.

compound CC(S)C(=O)NCC(=O)O (centres undefined) , TC observed: 70.8

compound CC(=O)[C@@]1(O)CC[C@H]2[C@@H]3C=C(Cl)C4=CC(=O)CC[C@]4(C)[C@H]3CC[C@@]21C , TC observed: 83.8

compound CCCCNC(=O)NS(=O)(=O)c1ccc(C)cc1 [TOLBUTAMIDE] , TC observed: 76.4

compound O=C(O)c1ccccc1Nc1ccccc1 , TC observed: 80.8

----------
Please respond with reported MCV for every item in the list.
Species on record: Rattus norvegicus
Assay: Open TG-GATES - Regimen: Daily Repeat
Format: toxicity, organism-based, Sprague-Dawley
Set-up: regimen Daily Repeat, gender Male, age 6 weeks
Details: in vivo, po, 0 mg/kg, […], tissue Blood, route gavage, dose level Control, time 28 day
State just the number; it will be interpreted in fL.

compound CC(S)C(=O)NCC(=O)O (configuration not stated) , MCV observed: 55.5

compound CN(CCOc1ccc(CC2SC(=O)NC2=O)cc1)c1ccccn1.O=C(O)/C=C\C(=O)O (configuration not stated) [ROSIGLITAZONE MALEATE] , MCV observed: 58.9

compound NS(=O)(=O)c1cc(C(=O)O)c(NCc2ccco2)cc1Cl [FUROSEMIDE] , MCV observed: 56.7

compound CCCCNC(=O)NS(=O)(=O)c1ccc(C)cc1 [TOLBUTAMIDE] , MCV observed: 58

compound CCO , MCV observed: 56.4

compound O=C(O)c1ccccc1Nc1ccccc1 , MCV observed: 55.9

compound COc1ccc([C@@H]2Sc3ccccc3N(CCN(C)C)C(=O)[C@@H]2OC(C)=O)cc1 , MCV observed: 57.2

----------
Species: Rattus norvegicus
Assay: Open TG-GATES - Regimen: Daily Repeat
Format: toxicity, organism-based, Sprague-Dawley
Design: regimen Daily Repeat, gender Male, age 6 weeks
Settings: in vivo, po, 0 mg/kg, […], tissue Blood, route gavage, dose level Control, time 14 day
Please respond with reported PT for every item in the list.
State just the number; it will be interpreted in s.

compound NS(=O)(=O)c1cc(C(=O)O)c(NCc2ccco2)cc1Cl [FUROSEMIDE] , PT observed: 15.3

compound CCCCNC(=O)NS(=O)(=O)c1ccc(C)cc1 [TOLBUTAMIDE] , PT observed: 13

compound CN(C/C=C/C#CC(C)(C)C)Cc1cccc2ccccc12 [TERBINAFINE] , PT observed: 11.5

compound CN(CCOc1ccc(CC2SC(=O)NC2=O)cc1)c1ccccn1.O=C(O)/C=C\C(=O)O (configuration not stated) [ROSIGLITAZONE MALEATE] , PT observed: 11.5

compound CC(S)C(=O)NCC(=O)O (configuration not stated) [TIOPRONIN] , PT observed: 15.6

compound CC(=O)[C@@]1(O)CC[C@H]2[C@@H]3C=C(Cl)C4=CC(=O)CC[C@]4(C)[C@H]3CC[C@@]21C [CHLORMADINONE] , PT observed: 15.4

compound CCO [ALCOHOL] , PT observed: 11.4

compound COc1ccc([C@@H]2Sc3ccccc3N(CCN(C)C)C(=O)[C@@H]2OC(C)=O)cc1 [DILTIAZEM] , PT observed: 14.1

compound CCN(CC)C(=S)SSC(=S)N(CC)CC , PT observed: 16.3

compound O=c1ccc2ccccc2o1 [COUMARIN] , PT observed: 11.7

compound O=C(O)c1ccccc1Nc1ccccc1 [FENAMIC ACID] , PT observed: 14.1

compound Nc1ccc(Cc2ccc(N)cc2)cc1 , PT observed: 11.2

Values were extracted from ChEMBL document CHEMBL3885861.
